Reference source for all entries: patent US20040024024A1

Assayed target: Human recombinant MMP-14 (Homo sapiens)
Construct: The catalytic domain enzyme was expressed in E. coli inclusion bodies, solubilized in urea; made in house
Experimental details: In vitro MMP inhibition, IC50 determination (fluorogenic substrate I)
Format: biochemical
Experimental context: value outside parentheses (Ki in parenthesis)
pIC50: −log10 of the molar value.
Measurement kind: pIC50

Field: example entries. Status: answers known.
CC(CCc1ccccc1)Oc1ccc(S(=O)(=O)C2(C(=O)NO)CCOCC2)cc1 (stereo not shown) : < 5.00
COc1ccc(OCCCCOc2ccc(S(=O)(=O)C3(C(=O)NO)CCOCC3)cc2)cc1 : 5.31
O=C(CCCOc1ccc(S(=O)(=O)C2(C(=O)NO)CCOCC2)cc1)Cc1ccc(Cl)cc1 : 7.02
COc1ccc(C(=O)N2CCC(COc3ccc(S(=O)(=O)C4(C(=O)NO)CCOCC4)cc3)CC2)cc1 : < 5.00
O=C1c2cc(Cl)c(Cl)cc2C(=O)N1CCCOc1ccc(S(=O)(=O)C2(C(=O)NO)CCOCC2)cc1 : < 5.00

Entry COc1ccc(-c2nnc(CCCCOc3ccc(S(=O)(=O)C4(C(=O)NO)CCOCC4)cc3)o2)cc1 , pIC50 reported as < 5.00

Entry O=C(NO)C1(S(=O)(=O)c2ccc(OCCC3CCCCC3)cc2)CCOCC1 , pIC50 reported as 5.84

Entry N#Cc1ccc(N2CCN(CCCOc3ccc(S(=O)(=O)C4(C(=O)NO)CCOCC4)cc3)C2=O)cc1 , pIC50 reported as < 5.00

Entry O=C(NO)C1(S(=O)(=O)c2ccc(OCCCCN3CCc4ccccc4C3)cc2)CCOCC1 , pIC50 reported as 5.54

* * *

Here the recorded IC50 is given for each entry.
Assayed target: Human recombinant MMP-9 (Homo sapiens)
Construct: made in house; host or cells: MMP-9-transfected HT1080 cells (spent media)
Sequence (P14780 107-707 limits assumed): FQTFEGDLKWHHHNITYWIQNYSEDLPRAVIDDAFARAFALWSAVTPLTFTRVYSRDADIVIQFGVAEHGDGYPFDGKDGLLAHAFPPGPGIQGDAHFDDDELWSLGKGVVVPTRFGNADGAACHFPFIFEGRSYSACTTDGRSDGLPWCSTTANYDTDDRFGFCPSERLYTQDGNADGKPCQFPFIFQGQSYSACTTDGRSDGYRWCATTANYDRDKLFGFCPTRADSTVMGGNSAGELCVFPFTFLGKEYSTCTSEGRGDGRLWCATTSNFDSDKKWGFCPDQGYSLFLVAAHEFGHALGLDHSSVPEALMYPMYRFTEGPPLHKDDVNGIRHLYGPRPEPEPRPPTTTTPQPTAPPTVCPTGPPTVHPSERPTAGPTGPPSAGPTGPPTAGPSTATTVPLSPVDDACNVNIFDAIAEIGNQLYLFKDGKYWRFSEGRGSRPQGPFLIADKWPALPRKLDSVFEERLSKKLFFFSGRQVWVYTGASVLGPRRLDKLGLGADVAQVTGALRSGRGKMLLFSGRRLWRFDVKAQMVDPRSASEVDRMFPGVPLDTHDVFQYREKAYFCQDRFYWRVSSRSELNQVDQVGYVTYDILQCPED
Experimental details: In vitro MMP inhibition, IC50 determination (fluorogenic substrate I)
Type: biochemical
Experimental context: value outside parenthesis
Numbers only; they are read as nM.

Field: example entries. Status: answers known.
COCCN1CCC(C(=O)NO)(S(=O)(=O)c2ccc(OCCCc3nc(-c4ccccc4OC(F)(F)F)no3)cc2)CC1 : 72.3
O=C(NCCCOc1ccc(S(=O)(=O)C2(C(=O)NO)CCN(C3CC3)CC2)cc1)c1ccc(OC(F)(F)F)cc1 : 6590
CC(C)C[C@@H]1C(=O)N(CCCOc2ccc(S(=O)(=O)C3(C(=O)NO)CCOCC3)cc2)C(=O)N1c1ccccc1 : 7690
O=C(CCCOc1ccc(S(=O)(=O)C2(C(=O)NO)CCOCC2)cc1)Nc1ccc(OC(F)(F)F)cc1 [Example 228] : 180
O=C1CN(c2ccccc2)C(=O)N1CCCOc1ccc(S(=O)(=O)C2(C(=O)NO)CCOCC2)cc1 [Example 174] : 4020
O=C(NO)C1(S(=O)(=O)c2ccc(OCCCc3nc(-c4ccccc4)no3)cc2)CCOCC1 : 944

API: the following record is the query input.
Entry O=C(NO)C1(S(=O)(=O)c2ccc(OCCCc3nc(-c4ccc5c(c4)OCO5)no3)cc2)CCOCC1 , IC50 reported as 768

* * *

Here the recorded pIC50 is given for each entry.
Assayed target: Human recombinant MMP-13 (Homo sapiens, UniProt P45452)
Construct: made in house; host or cells: baculovirus / insect cells
Experimental details: In vitro MMP inhibition, IC50 determination (fluorogenic substrate I)
Type: biochemical
Experimental context: value outside parenthesis
Just so you know, pIC50 here is -log10 of the concentration in molar units; reply with that number alone.

COCCN1CCC(C(=O)NO)(S(=O)(=O)c2ccc(OCCCCC(=O)c3ccc(N(C)C)cc3)cc2)CC1 : 9.70
CC(C)c1ccc(NC(=O)CCCOc2ccc(S(=O)(=O)C3(C(=O)NO)CCOCC3)cc2)cc1 : 9.70
O=C(NO)C1(S(=O)(=O)c2ccc(OCCCc3nnc(Cl)o3)cc2)CCOCC1 : 9.15
O=C(NO)C1(S(=O)(=O)c2ccc(OCCCc3nc(-c4cccc(Cl)c4Cl)no3)cc2)CCOCC1 : 8.66
COCCN1CCC(C(=O)NO)(S(=O)(=O)c2ccc(OCCCn3cc(-c4cccc(OC)c4)cn3)cc2)CC1 : 7.59
Cc1ccc(/C(C#N)=C/CCCOc2ccc(S(=O)(=O)C3(C(=O)NO)CCN(C4CC4)CC3)cc2)cc1C : 9.15
O=C(NO)C1(S(=O)(=O)c2ccc(OCCCSc3nc4cc(Cl)ccc4s3)cc2)CCOCC1 : 8.96
COCCN1CCC(C(=O)NO)(S(=O)(=O)c2ccc(OCCCn3ccc(-c4ccc(OC)cc4)n3)cc2)CC1 : 7.92
CCOc1ccc(-c2noc(CCCOc3ccc(S(=O)(=O)C4(C(=O)NO)CCOCC4)cc3)n2)cc1 : 8.77
CC(C)c1ccc(-c2cccc(CCCOc3ccc(S(=O)(=O)C4(C(=O)NO)CCOCC4)cc3)c2)cc1 : 6.30

Entry COCCN1CCC(C(=O)NO)(S(=O)(=O)c2ccc(OCCCn3nnc(-c4ccc(C(F)(F)F)cc4)n3)cc2)CC1 , pIC50 reported as 9.40

Entry O=C1CN(c2cccc(OC(F)(F)F)c2)C(=O)N1CCCOc1ccc(S(=O)(=O)C2(C(=O)NO)CCOCC2)cc1 , pIC50 reported as 8.25

Entry COCCN1CCC(C(=O)NO)(S(=O)(=O)c2ccc(OCCCn3cc(-c4ccc(F)cc4)cn3)cc2)CC1 , pIC50 reported as 7.88

Entry COCCN1CCC(C(=O)NO)(S(=O)(=O)c2ccc(OCCCc3nc(-c4ccc(OC(F)(F)F)cc4)no3)cc2)CC1 , pIC50 reported as 9.30
